Biological target: T1, hCEACAM5, human CEACAM5 ECD (35-685) (human, UniProt P06731 35-685)
T1 construct: produced in HEK293; also called human CEACAM5 protein; human CEACAM5 extracellular domain
T1 sequence: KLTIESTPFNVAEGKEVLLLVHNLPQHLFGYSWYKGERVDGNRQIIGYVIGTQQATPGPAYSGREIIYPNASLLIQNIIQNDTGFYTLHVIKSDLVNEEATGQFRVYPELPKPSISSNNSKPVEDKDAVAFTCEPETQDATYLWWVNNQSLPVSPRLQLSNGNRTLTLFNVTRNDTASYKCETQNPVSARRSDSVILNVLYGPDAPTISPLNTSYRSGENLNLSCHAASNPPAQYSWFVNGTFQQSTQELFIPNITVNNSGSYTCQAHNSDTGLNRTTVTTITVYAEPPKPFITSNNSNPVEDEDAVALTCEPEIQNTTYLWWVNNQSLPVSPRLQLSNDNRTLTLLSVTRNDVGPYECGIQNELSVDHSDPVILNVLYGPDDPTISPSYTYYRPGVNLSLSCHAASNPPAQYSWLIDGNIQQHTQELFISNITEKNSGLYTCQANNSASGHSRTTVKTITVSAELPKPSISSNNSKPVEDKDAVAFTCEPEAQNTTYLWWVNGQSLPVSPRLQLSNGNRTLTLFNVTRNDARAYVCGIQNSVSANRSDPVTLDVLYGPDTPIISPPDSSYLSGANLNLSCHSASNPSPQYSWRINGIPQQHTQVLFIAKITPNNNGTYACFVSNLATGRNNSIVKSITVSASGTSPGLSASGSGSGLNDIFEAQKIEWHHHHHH
Assay: SPR (BIAcore 2000), mAb captured by anti-human Fc, antigen injected 1-500 nM
In this section we review reported Kd values for a set of binders.
State the answer as a number, implicitly in nM.

Solved entries (count: 2):
huMAb2-1 (antibody, V domains shown, Humanized MAb2 (VL1 + VH1) fused to human IgG1 and human Ckappa constant domains; also called MAb2_VL1VH1-IgG1; MAb2VL1VH1-IgG1) VH: EVQLQESGPGLVKPGGSLSLSCAASGFVFSSYDMSWVRQTPERRLEWVAYISSGGGITYFPSTVKGRFTVSRDNAKNTLYLQMNSLTSEDTAIYYCAAHYFGSSGPFAYWGQGTLVTVSA VL: DIQMTQSPASLSASVGDTVTITCRASENIFSYLAWYQQKPGKSPKLLVYNTKTLAEGVPSRFSGSGSGTQFSLTISSLQPEDFGSYYCQHHYGTPFTFGSGTKLEIK; 9.8
huMAb2-3 (antibody, human IgG1, kappa, V domains shown, Humanized MAb2, human IgG1 / Ckappa; also called MAb2_VL1cVH1a-IgG1) VH: EVQLQESGPGLVKPGGSLSLSCAASGFVFSSYDMSWVRQTPERGLEWVAYISSGGGITYAPSTVKGRFTVSRDNAKNTLYLQMNSLTSEDTAVYYCAAHYFGSSGPFAYWGQGTLVTVSS VL: DIQMTQSPASLSASVGDRVTITCRASENIFSYLAWYQQKPGKSPKLLVYNTRTLAEGVPSRFSGSGSGTDFSLTISSLQPEDFATYYCQHHYGTPFTFGSGTKLEIKR; 11.7

Please look at the following binder next.
Kd measured on huMAb2-4 (antibody, human IgG1, kappa, V domains shown, Humanized MAb2, human IgG1 / Ckappa; also called MAb2_VL1d VH1-IgG1; MAb2_VL1dVH1-IgG1) VH: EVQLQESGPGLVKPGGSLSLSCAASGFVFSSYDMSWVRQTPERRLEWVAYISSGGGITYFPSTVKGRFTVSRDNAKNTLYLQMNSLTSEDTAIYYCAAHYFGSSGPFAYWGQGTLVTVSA VL: DIQMTQSPASLSASVGDTVTITCRASENIFSYLAWYQQKPGKSPKLLVYNTRTLAEGVPSRFSGSGSGTQFSLTISSLQPEDFGSYYCQHHYGTPFTFGSGTKLEIKR = 6.9
